test name: Cellular toxicity, primary human hepatocyte
Format: cell-based
recorded conditions: primary hepatocytes
value kind: CC50 (µM)
Provide only the numeric value, understood in µM.

Query string: Record request: CC50 value, item Cc1cc2c(F)c(Oc3ncnc(Nc4ccc(N5C[C@@H](C)N[C@@H](C)C5)cc4)c3C#N)cc(F)c2[nH]1 [Compound 19]
Result string: 20

---

assay system: CYP450 1A2 (Homo sapiens)
Sequence (P05177 1-516): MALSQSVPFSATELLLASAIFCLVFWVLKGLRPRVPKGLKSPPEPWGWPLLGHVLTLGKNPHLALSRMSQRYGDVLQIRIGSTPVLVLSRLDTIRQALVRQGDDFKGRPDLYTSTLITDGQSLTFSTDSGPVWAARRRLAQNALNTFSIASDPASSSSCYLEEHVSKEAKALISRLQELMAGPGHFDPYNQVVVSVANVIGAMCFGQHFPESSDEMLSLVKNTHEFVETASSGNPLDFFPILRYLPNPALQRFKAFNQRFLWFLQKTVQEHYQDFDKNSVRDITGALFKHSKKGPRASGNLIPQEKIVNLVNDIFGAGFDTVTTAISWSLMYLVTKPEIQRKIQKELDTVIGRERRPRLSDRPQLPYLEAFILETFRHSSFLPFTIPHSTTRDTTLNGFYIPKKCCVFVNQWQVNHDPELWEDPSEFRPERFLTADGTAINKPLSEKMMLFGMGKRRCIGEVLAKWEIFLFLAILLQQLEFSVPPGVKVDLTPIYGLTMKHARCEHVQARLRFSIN
value kind: pIC50
# pIC50: negative log10 of molar concentration; output just the value

Query string: What pIC50 value was documented for this molecule, Cc1cc2c(F)c(Oc3ncnc(Nc4ccc(N5C[C@@H](C)N[C@@H](C)C5)cc4)c3C#N)cc(F)c2[nH]1 ?
Result string: 4.14

---

assay system: FGFR4(h) (Homo sapiens, UniProt P22455)
Sequence (P22455 22-802): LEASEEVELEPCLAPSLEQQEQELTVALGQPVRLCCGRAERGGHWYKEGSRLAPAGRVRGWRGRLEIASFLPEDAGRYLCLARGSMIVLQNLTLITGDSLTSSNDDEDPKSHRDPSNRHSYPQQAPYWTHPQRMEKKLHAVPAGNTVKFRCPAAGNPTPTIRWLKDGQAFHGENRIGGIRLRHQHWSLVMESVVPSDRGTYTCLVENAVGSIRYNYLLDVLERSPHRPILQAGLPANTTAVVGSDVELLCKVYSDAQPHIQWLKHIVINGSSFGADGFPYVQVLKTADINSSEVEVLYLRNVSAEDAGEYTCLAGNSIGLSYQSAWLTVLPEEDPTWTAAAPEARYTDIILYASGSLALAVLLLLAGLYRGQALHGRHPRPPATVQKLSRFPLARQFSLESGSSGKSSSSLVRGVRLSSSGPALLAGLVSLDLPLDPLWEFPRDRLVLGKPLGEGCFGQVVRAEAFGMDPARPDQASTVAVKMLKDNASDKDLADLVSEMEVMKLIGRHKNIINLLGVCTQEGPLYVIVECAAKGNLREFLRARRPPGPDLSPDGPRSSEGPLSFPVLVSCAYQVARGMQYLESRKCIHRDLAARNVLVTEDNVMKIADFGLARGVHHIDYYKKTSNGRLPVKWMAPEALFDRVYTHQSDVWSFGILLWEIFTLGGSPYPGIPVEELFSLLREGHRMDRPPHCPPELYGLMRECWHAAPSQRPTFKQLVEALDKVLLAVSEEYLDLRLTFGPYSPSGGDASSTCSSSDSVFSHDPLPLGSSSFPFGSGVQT
value kind: pIC50
// pIC50 is dimensionless: -log10 of concentration (M)

Query string: # lookup: pIC50 of Cc1cc2c(F)c(Oc3ncnc(Nc4ccc(N5C[C@@H](C)N[C@@H](C)C5)cc4)c3C#N)cc(F)c2[nH]1 [Compound 19]
Result string: 7.92

---

assay system: FGFR1(h) (Homo sapiens)
Sequence (P11362 22-822): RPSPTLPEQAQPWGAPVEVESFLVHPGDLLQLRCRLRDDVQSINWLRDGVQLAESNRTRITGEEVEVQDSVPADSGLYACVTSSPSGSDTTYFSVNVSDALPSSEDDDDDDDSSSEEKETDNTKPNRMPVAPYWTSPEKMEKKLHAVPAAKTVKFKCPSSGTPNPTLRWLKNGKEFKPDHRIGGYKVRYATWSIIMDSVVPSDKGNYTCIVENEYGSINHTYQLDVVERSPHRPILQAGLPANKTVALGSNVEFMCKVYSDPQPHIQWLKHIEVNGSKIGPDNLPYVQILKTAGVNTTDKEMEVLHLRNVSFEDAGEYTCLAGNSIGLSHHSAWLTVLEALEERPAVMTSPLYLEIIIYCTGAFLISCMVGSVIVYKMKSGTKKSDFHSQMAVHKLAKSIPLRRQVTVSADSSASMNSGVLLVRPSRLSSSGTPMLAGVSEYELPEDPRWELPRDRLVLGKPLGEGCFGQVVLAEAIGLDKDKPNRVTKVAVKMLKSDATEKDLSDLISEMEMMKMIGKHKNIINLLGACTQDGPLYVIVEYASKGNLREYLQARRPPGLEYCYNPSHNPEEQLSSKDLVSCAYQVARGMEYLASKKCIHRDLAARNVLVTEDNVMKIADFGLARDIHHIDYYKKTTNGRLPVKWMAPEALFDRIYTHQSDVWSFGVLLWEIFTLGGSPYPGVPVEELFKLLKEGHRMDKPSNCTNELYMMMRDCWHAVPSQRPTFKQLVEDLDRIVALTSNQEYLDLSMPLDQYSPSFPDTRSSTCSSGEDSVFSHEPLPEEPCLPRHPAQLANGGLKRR
test name: Kinase assay, FGFR1(h)
Format: biochemical
recorded conditions: 1 μM
value kind: inhibition at 1 µM (%)
Please respond with the number in % and leave the unit unwritten.

Query string: Give its inhibition at 1 µM value. Item: Cc1cc2c(F)c(Oc3ncnc(Nc4ccc(N5[C@H](C)CNC[C@@H]5C)cc4)c3C#N)cc(F)c2[nH]1 [Compound 49]
Result string: 101

Query string: What do you have for Cc1cc2c(F)c(Oc3ncnc(Nc4ccc([N+](=O)[O-])cc4)c3C#N)cc(F)c2[nH]1 [Compound 44] ?
Result string: 41

Query string: Likewise for Cc1cc2c(F)c(Oc3ncnc(Nc4ccc(C(N)=O)cc4)c3C#N)cc(F)c2[nH]1 [Compound 36] ?
Result string: 99

Query string: And then Cc1cc2c(F)c(Oc3ncnc(Nc4ccc(C5CCNCC5)cc4)c3C#N)ccc2[nH]1 [Compound 30] , what is it?
Result string: 91

Query string: Thanks! And Cc1cc2c(F)c(Oc3ncnc(Nc4ccccc4)c3C#N)ccc2[nH]1 [Compound 23] ?
Result string: 98

Query string: Same read-out for Cc1cc2c(F)c(Oc3ncnc(Nc4ccc(N5CCN(C)CC5)c(F)c4)c3C#N)ccc2[nH]1 [Compound 2] ?
Result string: 100

Query string: Proceed to Cc1cc2c(F)c(Oc3ncnc(Nc4ccc(Cl)cc4)c3C#N)cc(F)c2[nH]1 [Compound 40]
Result string: 78

Query string: What do you have for C=CC(=O)Nc1ccc(Nc2ncnc(Oc3cc(F)c4[nH]c(C)cc4c3F)c2C#N)cc1 [Compound 56] ?
Result string: 101

---

assay system: FGFR3(h) (Homo sapiens, UniProt P22607)
Sequence (P22607 23-806): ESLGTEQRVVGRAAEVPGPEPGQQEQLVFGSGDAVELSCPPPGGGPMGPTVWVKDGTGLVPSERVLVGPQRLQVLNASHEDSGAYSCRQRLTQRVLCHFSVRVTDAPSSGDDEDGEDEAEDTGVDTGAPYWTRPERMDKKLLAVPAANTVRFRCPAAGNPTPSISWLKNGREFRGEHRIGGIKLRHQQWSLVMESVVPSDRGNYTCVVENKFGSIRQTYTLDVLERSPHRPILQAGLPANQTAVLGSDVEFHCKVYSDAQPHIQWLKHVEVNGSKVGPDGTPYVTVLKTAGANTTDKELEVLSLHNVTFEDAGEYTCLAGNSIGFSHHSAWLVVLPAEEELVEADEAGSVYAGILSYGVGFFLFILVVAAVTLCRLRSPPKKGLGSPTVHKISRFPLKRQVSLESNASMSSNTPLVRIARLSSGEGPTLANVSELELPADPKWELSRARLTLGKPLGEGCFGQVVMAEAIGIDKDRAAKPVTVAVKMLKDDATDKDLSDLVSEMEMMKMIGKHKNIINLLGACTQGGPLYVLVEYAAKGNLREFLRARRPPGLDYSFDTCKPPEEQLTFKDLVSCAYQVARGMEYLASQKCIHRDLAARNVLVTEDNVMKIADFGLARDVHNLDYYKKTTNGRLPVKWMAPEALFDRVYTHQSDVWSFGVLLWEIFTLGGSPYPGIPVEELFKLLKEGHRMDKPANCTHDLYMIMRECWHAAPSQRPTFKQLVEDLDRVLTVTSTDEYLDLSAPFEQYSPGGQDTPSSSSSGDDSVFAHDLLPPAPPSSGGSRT
value kind: IC50
Put down the number, then write its unit next to it.

Query string: Short answer please: IC50, FGFR3(h) (Homo sapiens, UniProt P22607), entry Cc1cc2c(F)c(Oc3ncnc(Nc4ccc(N5C[C@@H](C)N[C@@H](C)C5)cc4)c3C#N)cc(F)c2[nH]1
Result string: 12 nM

---

test name: Pharmacokinetic profile in rats
Assay type: in vivo
recorded conditions: in vivo; Rat, IV 1 mg/Kg
value kind: clearance (mL/min/kg)
Kindly answer with a numeric value in mL/min/kg, unit omitted.

Query string: State the recorded clearance for this entry: Cc1cc2c(F)c(Oc3ncnc(Nc4ccc(N5C[C@@H](C)N[C@@H](C)C5)cc4)c3C#N)cc(F)c2[nH]1
Result string: 17.6

---

assay system: UniProt P08684
Sequence (P08684 whole entry): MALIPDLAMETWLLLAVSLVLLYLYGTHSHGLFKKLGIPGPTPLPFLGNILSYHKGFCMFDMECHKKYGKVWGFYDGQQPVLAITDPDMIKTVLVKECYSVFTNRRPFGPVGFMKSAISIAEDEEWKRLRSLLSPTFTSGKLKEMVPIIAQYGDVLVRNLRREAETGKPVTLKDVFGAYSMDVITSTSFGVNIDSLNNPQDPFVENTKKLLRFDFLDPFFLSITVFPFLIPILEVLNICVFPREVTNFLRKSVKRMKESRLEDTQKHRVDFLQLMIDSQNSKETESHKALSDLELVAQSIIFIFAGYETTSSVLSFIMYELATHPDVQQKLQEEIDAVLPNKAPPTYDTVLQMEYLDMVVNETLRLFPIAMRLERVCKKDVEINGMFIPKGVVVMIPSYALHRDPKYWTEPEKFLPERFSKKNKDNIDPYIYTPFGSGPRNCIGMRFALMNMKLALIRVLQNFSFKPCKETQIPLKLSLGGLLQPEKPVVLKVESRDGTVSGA
value kind: pIC50
pIC50 is a log-scale quantity: -log10 of the concentration expressed in molar.

Query string: Recorded pIC50 of Cc1cc2c(F)c(Oc3ncnc(Nc4ccc(N5C[C@@H](C)N[C@@H](C)C5)cc4)c3C#N)cc(F)c2[nH]1 [Compound 19] , please.
Result string: 4.17

---

assay system: Axl(h) (Homo sapiens)
Sequence (P30530 26-894): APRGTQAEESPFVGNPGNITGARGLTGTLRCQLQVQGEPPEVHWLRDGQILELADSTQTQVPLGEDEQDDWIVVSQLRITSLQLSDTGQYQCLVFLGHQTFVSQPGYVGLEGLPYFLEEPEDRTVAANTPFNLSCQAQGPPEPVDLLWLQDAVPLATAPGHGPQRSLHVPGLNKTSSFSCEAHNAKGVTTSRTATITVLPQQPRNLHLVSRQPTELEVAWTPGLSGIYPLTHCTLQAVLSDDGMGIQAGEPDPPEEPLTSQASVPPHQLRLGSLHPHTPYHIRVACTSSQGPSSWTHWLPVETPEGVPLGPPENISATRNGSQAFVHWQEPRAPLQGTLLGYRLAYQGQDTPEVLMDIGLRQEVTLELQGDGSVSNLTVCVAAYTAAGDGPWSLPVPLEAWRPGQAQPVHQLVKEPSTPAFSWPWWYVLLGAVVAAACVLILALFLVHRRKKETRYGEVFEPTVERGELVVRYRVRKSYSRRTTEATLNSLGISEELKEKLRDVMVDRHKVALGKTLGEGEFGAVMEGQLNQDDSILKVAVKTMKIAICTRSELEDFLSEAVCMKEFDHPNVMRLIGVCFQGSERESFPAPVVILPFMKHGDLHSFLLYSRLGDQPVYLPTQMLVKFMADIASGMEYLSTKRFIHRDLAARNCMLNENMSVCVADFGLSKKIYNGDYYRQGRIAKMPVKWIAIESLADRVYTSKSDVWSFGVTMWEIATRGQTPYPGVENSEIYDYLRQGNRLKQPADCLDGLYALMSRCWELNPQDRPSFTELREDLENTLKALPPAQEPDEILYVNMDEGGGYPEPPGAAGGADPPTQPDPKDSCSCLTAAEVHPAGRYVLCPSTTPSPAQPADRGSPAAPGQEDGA
value kind: IC50

Query string: Bench note: what IC50 did Cc1cc2c(F)c(Oc3ncnc(Nc4ccc(N5C[C@@H](C)N[C@@H](C)C5)cc4)c3C#N)cc(F)c2[nH]1 show?
Result string: > 1000 nM

---

test name: In vivo acute toxicity, MTD
recorded conditions: PO, rat
value kind: MTD (mg/kg)
The reply should be a number in mg/kg, with the unit left off.

Query string: # input molecule: Cc1cc2c(F)c(Oc3ncnc(Nc4ccc(N5C[C@@H](C)N[C@@H](C)C5)cc4)c3C#N)cc(F)c2[nH]1 ; wanted: its MTD
Result string: 100

---

Kindly state inhibition at 1 µM for each of the entries shown.
assay system: FGFR1(h) (Homo sapiens)
test name: Kinase assay, FGFR1(h)
Assay type: biochemical
recorded conditions: 1 μM
Answer format: numeric, % implied, no suffix.

Query string: Would you kindly share the measured inhibition at 1 µM for Cc1cc2c(F)c(Oc3ncnc(Nc4ccc(C)c(S(N)(=O)=O)c4)c3C#N)ccc2[nH]1 ?
Result string: 94

Query string: Next entry: COC(=O)c1ccc(Nc2ncnc(Oc3cc(F)c4[nH]c(C)cc4c3F)c2C#N)cc1
Result string: 89

Query string: Input Cc1cc2c(F)c(Oc3ncnc(Nc4ccc(N5C[C@@H](C)N[C@@H](C)C5)c(F)c4)c3C#N)ccc2[nH]1
Result string: 100

Query string: Entry to check: Cc1cc2c(F)c(Oc3ncnc(Nc4ccc(N5CCN(C)CC5)c(C(F)(F)F)c4)c3C#N)ccc2[nH]1
Result string: 49

Query string: // query: CC(=O)Nc1ccc(Nc2ncnc(Oc3ccc4[nH]c(C)cc4c3F)c2C#N)cc1
Result string: 99

Query string: Thanks! And CCN1CCN(c2ccc(Nc3ncnc(Oc4ccc5[nH]c(C)cc5c4F)c3C(F)F)cc2)CC1 ?
Result string: 26

Query string: Continue with Cc1cc2c(F)c(Oc3ncnc(Nc4ccc(NS(C)(=O)=O)cc4)c3C#N)ccc2[nH]1
Result string: 97

Query string: Next: Cc1cc2c(F)c(Oc3ncnc(Nc4ccc(N5CCCCC5)cc4)c3C#N)ccc2[nH]1
Result string: 86

Query string: Try this compound too: CC(=O)N(C)c1ccc(Nc2ncnc(Oc3cc(F)c4[nH]c(C)cc4c3F)c2C#N)cc1
Result string: 92

Query string: Next compound up: Cc1cc2c(F)c(Oc3ncnc(Nc4ccc(N5CCNCC5)c(F)c4)c3C#N)ccc2[nH]1
Result string: 100

Query string: Could you do the same for Cc1cc2c(F)c(Oc3ncnc(Nc4ccc(-n5ccnc5C)cc4)c3C#N)ccc2[nH]1 , please?
Result string: 48

Query string: What do you get for Cc1cc2c(F)c(Oc3ncnc(Nc4ccc(NC(=O)C5CC5)cc4)c3C#N)cc(F)c2[nH]1 ?
Result string: 100

Query string: Let us now turn to Cc1cc2c(F)c(Oc3ncnc(Nc4ccc(N5C[C@@H](C)N[C@@H](C)C5)cc4)c3C#N)ccc2[nH]1
Result string: 100

Query string: Same for CCN1[C@H](C)CN(c2ccc(Nc3ncnc(Oc4cc(F)c5[nH]c(C)cc5c4F)c3C#N)cc2)C[C@@H]1C
Result string: 101

Query string: Try this compound next: Cc1cc2c(F)c(Oc3ncnc(Nc4ccc(N5C[C@@H](C)N[C@@H](C)C5)cc4)c3C#N)cc(F)c2[nH]1
Result string: 100
